B1: HDV Ribozyme (parent)
chain: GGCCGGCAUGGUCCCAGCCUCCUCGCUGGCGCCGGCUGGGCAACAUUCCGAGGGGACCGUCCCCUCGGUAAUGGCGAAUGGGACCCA

Variants of: B1
method_summary: self-cleavage, relative activity (ratio to wild type); higher = more cleavage; co-transcriptional
Decide by self-cleavage: equal to or exceeding 0.1 means MET, less means NOT MET.

variant_code | qualitative_label
C58G C64A | MET
C4G G25U | MET
U46G G53U | MET
C4A G81A | NOT MET
G29U A43U | NOT MET
C14A C36A | NOT MET
C66G A71U | MET
C32G U65C | MET
C32G G59C | NOT MET
U27A G74U | MET

Q: Please check the record U46A G80U and state if its self-cleavage is at or above 0.1.
Ans: MET
